# reported inhibition at 50 µM; entries follow
system: Aspergillus parasiticus; assay: microbe, parasite or virus in culture; format: cell-based; details: 168 h, 50 μM, 7 days at 20° C., read-out: Inhibition der Aflatoxin produktion bei 50 μM

Smiles Text | Measure Unit | inhibition at 50 µM
COCC(=O)Nc1cc(-c2cn(C(C)C)nc2-c2ccc(F)cc2)ccn1 | % | 99
CC(C)n1cc(-c2ccnc(NC(=O)C3CC3)c2)c(-c2ccc(F)cc2)n1 | % | 100
CCC(=O)Nc1cc(-c2cn(CC(C)C)nc2-c2ccc(F)cc2)ccn1 | % | 100

###

assay: physchem; conditions: LogPA (logP of the stated pure compound or, in a mixture, of the main isomer, 1-substituted 3-aryl-1H-pyrazole)

Compound | chromatographic logP
COc1ccc(-c2nn(C3CCCCO3)cc2-c2cc(-n3cccn3)ncn2)cc1 (centres unmarked) | 3.32
CC(C)(C)C(=O)Nc1cc(-c2cnn(C3CCCCO3)c2-c2cccc(C(F)(F)F)c2)ccn1 (centres unmarked) | 3.84
c1ccc(Oc2cccc(-c3c(-c4ccncc4)cnn3C3CCCCO3)c2)cc1 (centres unmarked) | 1.88
CC(C)=CCn1cc(-c2ccncc2)c(-c2c(F)cccc2F)n1 | 1.69
CC(C)n1cc(-c2ccnc3ccccc23)c(-c2ccc(F)cc2)n1 | 2.24

Origin of values: patent US20110183978A1
